// provenance: PubChem BioAssay (NCI)

- Tested on: HT29 colon
- Method Notes: NCI-60 one-dose screen, 48 h
- Assay Context: 10 µM unless noted
- Description: Growth inhibition of the HT29 human tumor cell line is measured as a screen for anti-cancer activity. Cells are grown in 96 well plates and exposed to the test compound for 48 hours. Compounds are tested at a single concentration, which is 10^-5 M for most compounds. The reported endpoint is percent growth (GI% or GIPRCNT), where numbers from 0 - 100% represent growth inhibition, and numbers from -100% - 0 represent cell death. For example, a value of 40 represents 60% growth inhibition. […]
This is part of a sample that, as a whole, favours compounds with a hit. Of some 83,000 tested, about 20% had one in any assay. The source made the active and inactive calls. The calls were made as follows: active = growth percent below 10; inactive = the rest.
Just give me one of these, please: 1 (yes) (active), 0 (no) (inactive)

Consider the worked cases shown below.
>>> class_name("O=C1/C(=C/c2ccc([N+](=O)[O-])cc2)CN(C(=O)CCN2CCC(=NO)CC2)C/C1=C\\c1ccc([N+](=O)[O-])cc1")
"1 (yes)"
>>> class_name("O=C1/C(=C/c2ccc(Cl)cc2)CN(Cc2cn(CCNc3ccnc4cc(Cl)ccc34)nn2)C/C1=C\\c1ccc(Cl)cc1")
"1 (yes)"
>>> class_name("FC(F)(F)c1ccccc1-c1cn2c(ccc3ccccc32)n1")
"0 (no)"
>>> class_name("CCC(=O)Oc1ccc(/C(=C(/C)Cc2cccc(OC)c2)c2ccc(OCCN(C)C)cc2)cc1")
"0 (no)"

Let us examine a further case.
Task item: For `S=c1[nH]nc(-c2cc3ccc2CCc2ccc(cc2)CC3)n1-c1ccccc1` , which call appears in the assay record?
Reply: 0 (no)

----------
- Tested on: SK-MEL-5 melanoma
- Method Notes: NCI-60 one-dose screen, 48 h (100 = growth as untreated, 0 = no growth, -100 = all killed)
- Assay Context: 10 µM unless noted
This is part of a sample that, as a whole, favours compounds with a hit. Of some 83,000 tested, about 20% had one in any assay.
Measured Property: growth (%)
Give the number; % is assumed, so skip it.

Some entries whose results are on file:
>>> readout_value("CC(C)CSc1nc(NN)c(C#N)c(-c2ccc(F)cc2)n1")
50.3
>>> readout_value("COc1ccc(-c2cc3c(OC)c(OC)c(OC)cc3oc2=O)cc1")
14.4
>>> readout_value("COc1ccc(-c2c(N)n[nH]c2-c2cc(OC)c3c(c2)OCCO3)cc1")
69.8
>>> readout_value("N=C(N)c1ccc(-c2cc(Cl)cc(Cl)c2)cn1")
89.3
>>> readout_value("CC(C)(C)n1cc(-c2ccnc(NCCCNS(=O)(=O)c3cccc(F)c3)c2)c(-c2cccc(O)c2)n1")
26.1
>>> readout_value("COc1ccc(NC(=O)c2c(Nc3ccc(OC)cc3OC)n[nH]c2N)c(OC)c1")
79.9
>>> readout_value("CN(C[C@H]1Cc2c(cccc2N2CCN(Cc3ccccn3)CC2)CN1)[C@H]1CCCc2cccnc21")
55.8
>>> readout_value("O=C(NCc1cn(Cc2cccc(Oc3ccccc3)c2)nn1)c1cccnc1Nc1ccc(F)cc1")
40.8

Task item: Quick one: growth of `COc1cc(NC(N)=NCCC(C)(C)Oc2ccc(C(F)(F)F)cc2)ncc1C#N` ?
Reply: -95.8

Task item: Next molecule up: `O=C1CCCCC1(c1ccccc1)c1ccccc1`
Reply: 99.1

----------
- System: EKVX NSCLC
- Method Notes: NCI-60 one-dose screen, 48 h (100 = growth as untreated, 0 = no growth, -100 = all killed)
- Assay Context: 10 µM unless noted
The panel holds about 83,000 compounds, 20% with a hit somewhere; the sample as a whole holds those more often.
Recorded growth by entry
Give the number; % is assumed, so skip it.

>>> readout_value("COc1cccc(/C=C2\\Oc3cc(OCCCN4CCCC4)ccc3C2=O)c1OC")
93
>>> readout_value("CC(C)c1ccc2occ(C=C3C(=O)NC(=O)NC3=O)c(=O)c2c1")
117
>>> readout_value("Cc1cc(C2(c3cc(C)c(O)cc3C)OS(=O)(=O)c3ccccc32)c(C)cc1O")
105

Task item: Quick one: growth of `COc1ccc(/C=C/c2c(C(C)=O)c(C)nc3ccccc23)cc1` ?
Reply: 81.7

Task item: Next molecule up: `O=C(/C=C/c1ccccc1)c1cccc(O)c1`
Reply: 108

Task item: Next molecule up: `CCOC(=O)c1c(NS(=O)(=O)c2ccc(C)cc2)sc2c1CCC1(C2)OCCO1`
Reply: 94.6

Task item: Next molecule up: `Cc1cc(C(C)(C)C)ccc1S`
Reply: 123

----------
- Tested on: SF-268 CNS
- Method Notes: NCI-60 one-dose screen, 48 h (100 = growth as untreated, 0 = no growth, -100 = all killed)
- Assay Context: 10 µM unless noted
This is part of a sample that, as a whole, favours compounds with a hit. Of some 83,000 tested, about 20% had one in any assay.
Recorded growth by entry
Give the number; % is assumed, so skip it.

Some entries whose results are on file:
>>> readout_value("Cc1cc(C2=NNC(=O)Cc3cc4c(cc32)OCCO4)cc(C)c1N")
44.6
>>> readout_value("CC(C)(C)c1[nH]nc2c1C(c1cc3ccccc3[nH]c1=O)Nc1cc(C(=O)Nc3ccc(Cl)cc3)ccc1N2 (stereo not given)")
62.2
>>> readout_value("CC12CCC3C4(C)COC(c5ccccc5Cl)OC4CCC3(C)C1CC(C1=CCOC1=O)O2 (stereo not given)")
70.1
>>> readout_value("CO[C@H]1NC(=O)N(S(=O)(=O)c2ccc(Cl)cc2)[C@@H]1OC")
102

Task item: Quick one: growth of `CN(C[C@H]1Cc2c(cccc2N2CCN(c3ncccn3)CC2)CN1)[C@H]1CCCc2cccnc21` ?
Reply: 60

Task item: Next compound up: `CC(C)(C)n1cc(-c2ccnc(NCCCNS(=O)(=O)c3cccc(F)c3)c2)c(-c2cccc(O)c2)n1`
Reply: 54

Task item: Next compound up: `N#Cc1c(-c2ccccc2)nc(SCC(=O)N2CCN(c3ccccc3)CC2)[nH]c1=O`
Reply: 111

Task item: Next compound up: `C=C(C)[C@@H]1C[C@H](O)Cc2cc(F)ccc2N1`
Reply: 113

Task item: Next compound up: `O=C1CS/C(=N\Nc2cc(=O)[nH]c3ccccc23)N1c1ccccc1`
Reply: 86.1

Task item: Next compound up: `COc1ccc(/C=C(\C#N)c2cc(OC)c3c(c2)OCO3)cc1`
Reply: 26.9

----------
- System: HOP-62 NSCLC
- Method Notes: NCI-60 one-dose screen, 48 h (100 = growth as untreated, 0 = no growth, -100 = all killed)
- Assay Context: 10 µM unless noted
Compounds without any hit were thinned out: in the full panel of roughly 83,000, 20% have a hit.
Grouping rule (growth): band 1 = under 30%, band 2 = from 30% up to 90%, band 3 = 90% and over

Consider the worked cases shown below.
>>> class_name("COc1cc(-c2nn(-c3cccc(NC(=O)c4cccc(C(F)(F)F)c4)c3)cc2-c2ccncc2)ccc1Cl")
"band 1"
>>> class_name("CC(C)(C)n1cc(-c2ccnc(NCCCNS(=O)(=O)c3ccccc3)c2)c(-c2cccc(O)c2)n1")
"band 2"
>>> class_name("Cc1csc(NC(c2ccc(Br)cc2)c2c(C)nc3ccccn23)n1 (centres undefined)")
"band 3"
>>> class_name("O=C(Nc1cccc(-n2cc(-c3ccncc3)c(-c3ccc(Cl)c(O)c3)n2)c1)Nc1cc(C(F)(F)F)cc(C(F)(F)F)c1")
"band 1"
>>> class_name("COc1ccc(C2=CC(c3cc(OC)c(OC)c(OC)c3)NC(=O)N2)cc1OC (centres undefined)")
"band 2"

Task item: Exam item: assign `CCn1c2ccccc2c2cc(NC(=O)Nc3ccc([N+](=O)[O-])cc3C)ccc21` to the correct category.
Reply: band 2

Task item: Next molecule up: COc1ccc(C2C(C#N)=C(N)Oc3c2ccc2ccccc32)cc1 (centres undefined)
Reply: band 2

Task item: Next molecule up: `Cc1ccc(S(=O)(=O)NCCNc2nccc(-c3c(-c4cccc(N)c4)nc4sccn34)n2)cc1`
Reply: band 3

----------
Recorded growth by entry
- Tested on: HCT-116 colon
- Method Notes: NCI-60 one-dose screen, 48 h (100 = growth as untreated, 0 = no growth, -100 = all killed)
- Assay Context: 10 µM unless noted
About 83,000 compounds went through this panel and 20% of them were active in at least one assay; those are over-represented in the sample as a whole.
Give the number; % is assumed, so skip it.

Some entries whose results are on file:
>>> readout_value("Nc1nc(Nc2cc(Cl)cc(Cl)c2)nn1S(=O)(=O)c1ccc2ccccc2c1")
33.5
>>> readout_value("COc1ccc2cc(-c3ccc(-c4ccc(C(=N)N)cc4)s3)ccc2c1")
71.3
>>> readout_value("Cc1ccc(-c2nc(C(Cl)Cl)n3nc(-c4ccccc4)cc3n2)cc1")
9.65
>>> readout_value("COc1ccc2c(c1)OC1=C(C(=O)OC1)C2c1cc(OC)c2c(c1)OCO2 (stereo not given)")
10

Consider the record given below.
Task item: Quick one: growth of `COc1ccc(-c2cn(-c3cccc(C(=O)/C=C/c4cc(OC)c(OC)c(OC)c4)c3)c(=O)[nH]2)cc1OC` ?
Reply: 63.6
